test system: ISC-enriched organoids; assay: Primary screen, 384-well 2.5-D organoid differentiation (ENR+CD, 6 days): carbachol-induced lysozyme secretion (LYZ.S); type: cell-based, murine; conditions: dose 10.00 uM; vs plate median
Outcome: true (1) for Dose.FC.LYZ.S (log 2 fold change, carbachol-induced lysozyme secretion) of at least -0.1; false (0) for anything lower.

Past entries and their recorded results:
COc1ccc2cc(-c3nc(-c4ccc([S+](C)[O-])cc4)[nH]c3-c3ccncc3)ccc2c1 (centres unmarked) [Tie2 kinase inhibitor]: true (1)
CCO.N#CC(=C(/N)Sc1ccccc1N)/C(C#N)=C(\N)Sc1ccccc1N [U0126-EtOH]: false (0)
C[C@]1(c2nc3c(C(N)=O)cccc3[nH]2)CCCN1 [Veliparib (ABT-888)]: false (0)
CC(C)(C)c1cc(/C=C(\C#N)C(N)=S)cc(C(C)(C)C)c1O [Tyrphostin AG 879]: false (0)
COc1nc(C)cnc1NS(=O)(=O)c1cccnc1-c1ccc(-c2nnco2)cc1 [Zibotentan (ZD4054)]: true (1)

Threshold query (Dose.FC.LYZ.S (log 2 fold change, carbachol-induced lysozyme secretion) >= -0.1) on NC(=O)Nc1sc(-c2ccc(F)cc2)cc1C(N)=O [TPCA-1]
false (0)

Threshold query (Dose.FC.LYZ.S (log 2 fold change, carbachol-induced lysozyme secretion) >= -0.1) on N#C[C@@H]1CCCN1C(=O)CNC12CC3CC(CC(O)(C3)C1)C2 [Vildagliptin (LAF-237)]
true (1)
